Molecular target: T1, TIM3 protein (cat #CHI-MF-210T3-0050, Chimerigen)
T1 construct: Bought recombinant protein used in SPR; also called TLM3 protein
T1 sequence (Q8VIM0 20-193, change not shown): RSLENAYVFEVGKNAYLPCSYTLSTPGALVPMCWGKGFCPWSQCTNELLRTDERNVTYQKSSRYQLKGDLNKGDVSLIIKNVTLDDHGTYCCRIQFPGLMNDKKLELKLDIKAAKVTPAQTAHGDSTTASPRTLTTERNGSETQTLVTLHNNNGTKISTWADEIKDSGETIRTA
Experiment: SPR (OpenSPR), TIM3 protein immobilised on chip, peptide in flow
# koff annotations
endpoint.name: koff (s⁻¹)

# binder, value.observed
data = [
    ("ALWPSSSMSSTI (Synthetic 12-mer from phage display screening) [P1303-12-peptide (targeting TIM3)]", 0.00308),
    ("FTYAHPVSHRWESSVHVDQW (Synthetic 20-mer from phage display screening) [K2-20-peptide (targeting TIM3)]", 0.0103),
    ("SQEVFAWTFSPRWTTAPKAL (Synthetic 20-mer from phage display screening) [K3-20-peptide (targeting TIM3)]", 0.0132),
]
